test-name: qHTS of pediatric cancer cell lines to identify multiple opportunities for drug repurposing: Primary screen for Rh41 cells (AID 1347108); further: nearly all actives have a fitted effect of over 70% in size
applied-conditions: Rh41 rhabdomyosarcoma viability, CellTiter-Glo luminescence, 48 h; series mostly up to 46 µM
Records with an inconclusive call do not appear. Activity calls are given as the source filed them. The call rests on the fitted dose curve; in most records, active means well fitted cell-killing curve with a large enough effect; inconclusive means small, poorly fitted or top-dose-only effect; inactive means no such curve, though single readings can be large or run the other way.
Outcome codes: yes (1) = active, no (0) = inactive

compound	cat
CC(C)(C)Cn1c(N)nc2ccc(-c3[nH]c(C(C)(C)C)nc3-c3ccc(F)cc3)nc21	yes (1)
COc1ccc2c(Oc3ccc(NC(=O)c4c(C)n(CC(C)(C)O)n(-c5ccccc5)c4=O)nc3)ccnc2c1	no (0)
CC(=O)N[C@@H](CS)C(=O)O	no (0)
O=c1c(-c2ccc(O)cc2)coc2cc(OC3O[C@H](CO)[C@H](O)[C@H](O)[C@H]3O)cc(O)c12 (stereo partly specified)	yes (1)
COc1cc(Nc2ncc(F)c(Nc3ccc4c(n3)NC(=O)C(C)(C)O4)n2)cc(OC)c1OC	yes (1)
C[C@H]1[C@H](NC(=O)C(=NOC(C)(C)C(=O)O)c2csc(N)n2)C(=O)N1S(=O)(=O)O	no (0)
CC(=Cc1ccccc1)C=C1SC(=S)N(CC(=O)O)C1=O	no (0)
C=C1C(=O)OC(CCCCCCCC)C1C(=O)O (stereo unspecified)	no (0)
N#CC(=C(N)Sc1ccccc1N)C(C#N)=C(N)Sc1ccccc1N	yes (1)
O=C1NC(=O)C(=Cc2ccc3c(c2)OC(F)(F)O3)S1	no (0)
COC1CCC(N(C(=O)C2CCC(C)CC2)c2cc(C3=CCCCC3)sc2C(=O)O)CC1 (stereo unspecified)	no (0)
Cn1cc(C=C2C(=O)Nc3cccnc32)c2ccccc21	no (0)
COc1ccc2c3c1OC1C[C@@H](O)C=C[C@@]31CCN(C)C2 (stereo partly specified)	no (0)
CC(=O)N(C)C1(c2ccccc2)CCN(CCC[C@]2(c3ccc(Cl)c(Cl)c3)CCCN(C(=O)c3ccccc3)C2)CC1	yes (1)
O=c1c(-c2ccc(O)cc2)coc2cc(O[C@@H]3O[C@H](CO)[C@H](O)[C@H](O)[C@H]3O)ccc12	no (0)
CC(C)(C)C(=O)Oc1ccc2c(c1)nc(NC(=O)c1cccc([N+](=O)[O-])c1)n2CCCO	no (0)
CNC(=O)c1ccc2cc(C3(O)CCn4cncc43)ccc2c1 (stereo unspecified)	no (0)
CON=C(C(=O)N[C@@H]1C(=O)N2C(C(=O)OCOC(=O)C(C)(C)C)=C(C=Cc3scnc3C)CS[C@H]12)c1csc(N)n1	no (0)
CN(C)CCC=C1c2ccccc2COc2ccc(CC(=O)O)cc21	no (0)
O=C(O)CCc1nc(-c2ccccc2)c(-c2ccccc2)o1	no (0)
CC(C)C(C)C=CC(C)C1CCC2C3=CC=C4CC(O)CCC4(C)C3CCC21C (stereo unspecified)	no (0)
CN(C)c1cc(NC(=O)CNC(C)(C)C)c(O)c2c1C[C@@H]1C[C@H]3[C@H](N(C)C)C(=O)C(C(N)=O)=C(O)[C@@]3(O)C(=O)C1=C2O	no (0)
Cc1ccc(C(=O)Nc2cccc(C(F)(F)F)c2)cc1Nc1nc(-c2cccnc2)nc2c1cnn2C	yes (1)
CO[C@H]1C[C@@H]2CC[C@@H](C)[C@@](O)(O2)C(=O)C(=O)N2CCCC[C@@H]2C(=O)O[C@H]([C@H](C)C[C@@H]2CC[C@H](OCCO)[C@H](OC)C2)CC(=O)[C@H](C)C=C(C)[C@@H](O)[C@@H](OC)C(=O)[C@H](C)C[C@H](C)C=CC=CC=C1C	yes (1)
Cc1[nH]c(C=C2C(=O)Nc3ccc(S(=O)(=O)Cc4c(Cl)cccc4Cl)cc32)c(C)c1C(=O)N1CCC[C@H]1CN1CCCC1	yes (1)
CC(=O)Nc1ccc([C@H](C)C(=O)Nc2ncc(C(C)C)s2)cc1	yes (1)
CC(=O)O[C@]1(C(C)=O)CC[C@H]2[C@@H]3C=C(Cl)C4=CC(=O)[C@@H]5C[C@@H]5[C@]4(C)[C@H]3CC[C@@]21C	yes (1)
CC(C)(C)c1ccc(C(O)CCCN2CCC(C(O)(c3ccccc3)c3ccccc3)CC2)cc1 (stereo unspecified)	no (0)
CC[C@H]1OC(=O)[C@H](C)[C@@H](O[C@H]2C[C@@](C)(OC)[C@@H](O)[C@H](C)O2)[C@H](C)[C@@H](O[C@@H]2O[C@H](C)C[C@H](N(C)C)[C@@H]2O)[C@](C)(O)C[C@@H](C)CN(C)[C@H](C)[C@@H](O)[C@]1(C)O	no (0)
O=C1NC(=O)C(=Cc2cccc(C(F)(F)F)c2)S1	yes (1)
CC1(C)Cc2c(sc(NC(=S)NC(=O)c3ccccc3)c2C(=O)O)CO1	no (0)
